- System: CAKI-1
- ASSAY SUMMARY: NCI tumour cell line growth inhibition, 48 h
Activity calls are given as the source filed them. Rule as the data show it: active = GI50 up to about 1.1 µM and inactive = higher.
Please answer using one outcome listed in 1.0 (active), 0.0 (inactive)

The following compounds have reported results that may help.
* CCCCCC(/C=C/C1CCC(=O)C1)OCOCCOC (stereo not given) | 0.0
* CCOC(=O)c1cccc(NC(=O)CBr)c1 | 1.0
* O=C(c1ccc(Cl)cc1)c1cnc(Nc2ccccc2Cl)s1 | 0.0

# input for lookup
Q. I'd appreciate the recorded outcome for COc1cc(S(=O)(=O)Nc2ccc(-c3csc(N4C(=O)C(C)SC4c4cccc(Oc5ccccc5)c4)n3)cc2)ccc1Cl (stereo not given) from this test.
A. 0.0
